ASSAY TARGET: D(2) dopamine receptor (Rattus norvegicus)
MEASURED ENDPOINT: IC50

[[record]]
compound = "c1ccc2c(N3CCNCC3)nsc2c1 [BENZISOTHIAZOLE-3-YL-PIPERAZINE]"
measured_endpoint = "IC50"
observed_result = "Not Active"

[[record]]
compound = "O=C1CC2(CCCC2)CC(=O)N1CCCCN1CCN(C2=NS(=O)(=O)c3ccccc32)CC1"
measured_endpoint = "IC50"
observed_result = "Not Active"

[[record]]
compound = "COc1cccc2c(N3CCNCC3)nsc12"
measured_endpoint = "IC50"
observed_result = "Not Active"

[[record]]
compound = "O=C1CC2(CCCC2)CC(=O)N1CCC(O)CN1CCN(c2n[s+]([O-])c3ccccc23)CC1 (stereo unspecified)"
measured_endpoint = "IC50"
observed_result = "Not Active"

[[record]]
compound = "O=S1(=O)N=C(N2CCNCC2)c2ccccc21 [BENZISOTHIAZOLE-3YL-PIPERAZINE SULFOXIDE]"
measured_endpoint = "IC50"
observed_result = "Not Active"

[[record]]
compound = "O=C1CC2(CCC(O)C2)CC(=O)N1CCCCN1CCN(c2n[s+]([O-])c3ccccc23)CC1 (stereo unspecified)"
measured_endpoint = "IC50"
observed_result = "Not Active"

[[record]]
compound = "O=C1CCC2(C1)CC(=O)N(CCCCN1CCN(c3n[s+]([O-])c4ccccc34)CC1)C(=O)C2 (stereo unspecified)"
measured_endpoint = "IC50"
observed_result = "Not Active"

[[record]]
compound = "COc1ccc2snc(N3CCNCC3)c2c1"
measured_endpoint = "IC50"
observed_result = "Not Active"

[[record]]
compound = "O=C1CC2(CCCC2)CC(=O)N1CCCCN1CCN(c2n[s+]([O-])c3ccccc23)CC1 (stereo unspecified)"
measured_endpoint = "IC50"
observed_result = "Not Active"

[[record]]
compound = "COc1cccc2snc(N3CCNCC3)c12"
measured_endpoint = "IC50"
observed_result = "Not Active"

[[record]]
compound = "COc1ccc2c(N3CCNCC3)nsc2c1"
measured_endpoint = "IC50"
observed_result = "Not Active"

[[record]]
compound = "O=C1CN(C2=NS(=O)(=O)c3ccccc32)CCN1"
measured_endpoint = "IC50"
observed_result = "Not Active"

[[record]]
compound = "O=C1CC2(CCC(O)C2)CC(=O)N1CCCCN1CCN(C2=NS(=O)(=O)c3ccccc32)CC1 (stereo unspecified)"
measured_endpoint = "IC50"
observed_result = "Not Active"

[[record]]
compound = "O=C1CC2(CCCC2)C(O)C(=O)N1CCCCN1CCN(C2=NS(=O)(=O)c3ccccc32)CC1 (stereo unspecified)"
measured_endpoint = "IC50"
observed_result = "Not Active"

[[record]]
compound = "O=C1CC2(CCCC2)C(O)C(=O)N1CCCCN1CCN(c2n[s+]([O-])c3ccccc23)CC1 (stereo unspecified)"
measured_endpoint = "IC50"
observed_result = "Not Active"

[[record]]
compound = "[O-][s+]1nc(N2CCNCC2)c2ccccc21 (stereo unspecified) [BITP-SULFONE]"
measured_endpoint = "IC50"
observed_result = "Not Active"


* * *

Organism: Rattus norvegicus
TEST PROTOCOL: Selectivity ratio of IC50 for dopamine receptor and Alpha-1 receptor
Reported Ratio values are given for each entry in this list.
MEASURED ENDPOINT: Ratio

[[record]]
compound = "O=C1CC2(CCC(O)C2)CC(=O)N1CCC(O)CN1CCN(c2nsc3ccccc23)CC1 (stereo not given)"
observed_result = 69

[[record]]
compound = "O=C1CC2(CCCC2)C(C(=O)NCCCCN2CCN(c3nsc4ccccc34)CC2)O1 (stereo not given)"
observed_result = 60

[[record]]
compound = "O=C1CC2(CCC(O)C2)CC(=O)N1CCCCN1CCN(c2nsc3ccccc23)CC1 (stereo not given)"
observed_result = 60

[[record]]
compound = "O=C1CCC2(C1)CC(=O)N(CCCCN1CCN(c3nsc4ccccc34)CC1)C(=O)C2"
observed_result = 52

[[record]]
compound = "O=C1CC2(CCCC2)CC(=O)N1CCC(O)CN1CCN(c2nsc3ccccc23)CC1 (stereo not given)"
observed_result = 13


* * *

ASSAY TARGET: D(2) dopamine receptor (Rattus norvegicus, UniProt P61169)
Sequence (P61169 whole entry): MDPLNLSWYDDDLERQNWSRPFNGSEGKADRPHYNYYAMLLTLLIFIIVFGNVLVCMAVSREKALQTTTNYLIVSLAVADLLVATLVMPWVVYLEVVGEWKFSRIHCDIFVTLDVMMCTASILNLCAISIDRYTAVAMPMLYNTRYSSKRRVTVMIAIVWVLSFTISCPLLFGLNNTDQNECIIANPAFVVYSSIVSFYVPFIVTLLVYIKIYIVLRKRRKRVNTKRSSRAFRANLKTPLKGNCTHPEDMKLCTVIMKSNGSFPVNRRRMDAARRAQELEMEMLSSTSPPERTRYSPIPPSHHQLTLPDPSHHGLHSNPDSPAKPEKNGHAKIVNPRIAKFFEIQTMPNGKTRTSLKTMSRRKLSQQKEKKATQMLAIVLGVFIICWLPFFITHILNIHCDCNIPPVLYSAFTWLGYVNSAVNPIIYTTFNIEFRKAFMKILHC
TEST PROTOCOL: Binding affinity against dopamine receptor D2 in rat corpus striatal tissue using [3H]spiperone as radioligand
Assay type: tissue-based, Striatum
MEASURED ENDPOINT: IC50 (nM)

[[record]]
molecule = "O=C1CCC2(C1)CC(=O)N(CCCCN1CCN(c3nsc4ccccc34)CC1)C(=O)C2"
assay_target = "D(2) dopamine receptor (Rattus norvegicus, UniProt P61169)"
observed_result = 68.3

[[record]]
molecule = "O=C1CC2(CCC(O)C2)CC(=O)N1CCC(O)CN1CCN(c2nsc3ccccc23)CC1 (stereo not given)"
assay_target = "D(2) dopamine receptor (Rattus norvegicus, UniProt P61169)"
observed_result = 491

[[record]]
molecule = "O=C1CC2(CCC(O)C2)CC(=O)N1CCCCN1CCN(c2nsc3ccccc23)CC1 (stereo not given)"
assay_target = "D(2) dopamine receptor (Rattus norvegicus, UniProt P61169)"
observed_result = 52.5

[[record]]
molecule = "O=C1CC2(CCCC2)C(C(=O)NCCCCN2CCN(c3nsc4ccccc34)CC2)O1 (stereo not given)"
assay_target = "D(2) dopamine receptor (Rattus norvegicus, UniProt P61169)"
observed_result = 150

[[record]]
molecule = "O=C1CC2(CCCC2)CC(=O)N1CCC(O)CN1CCN(c2nsc3ccccc23)CC1 (stereo not given)"
assay_target = "D(2) dopamine receptor (Rattus norvegicus, UniProt P61169)"
observed_result = 111


* * *

ASSAY TARGET: Adrenergic receptor alpha-1 (Rattus norvegicus, UniProt P15823+P23944+P43140)
TEST PROTOCOL: Binding affinity against alpha-1 adrenergic receptor in rat cerebral cortex tissue using [3H]WB-4101 as radioligand
Format: tissue-based
Lab note - cut at 1 nM for IC50: y if strictly below, n if not.

[[record]]
molecule = "O=C1CC2(CCCC2)CC(=O)N1CCC(O)CN1CCN(c2nsc3ccccc23)CC1 (stereo not given)"
answer_label = "n"

[[record]]
molecule = "O=C1CC2(CCC(O)C2)CC(=O)N1CCCCN1CCN(c2nsc3ccccc23)CC1 (stereo not given)"
answer_label = "y"

[[record]]
molecule = "O=C1CC2(CCC(O)C2)CC(=O)N1CCC(O)CN1CCN(c2nsc3ccccc23)CC1 (stereo not given)"
answer_label = "n"

[[record]]
molecule = "O=C1CC2(CCCC2)C(C(=O)NCCCCN2CCN(c3nsc4ccccc34)CC2)O1 (stereo not given)"
answer_label = "n"

[[record]]
molecule = "O=C1CCC2(C1)CC(=O)N(CCCCN1CCN(c3nsc4ccccc34)CC1)C(=O)C2"
answer_label = "n"


* * *

ASSAY TARGET: UniProt:P14842
Sequence (P14842 whole entry): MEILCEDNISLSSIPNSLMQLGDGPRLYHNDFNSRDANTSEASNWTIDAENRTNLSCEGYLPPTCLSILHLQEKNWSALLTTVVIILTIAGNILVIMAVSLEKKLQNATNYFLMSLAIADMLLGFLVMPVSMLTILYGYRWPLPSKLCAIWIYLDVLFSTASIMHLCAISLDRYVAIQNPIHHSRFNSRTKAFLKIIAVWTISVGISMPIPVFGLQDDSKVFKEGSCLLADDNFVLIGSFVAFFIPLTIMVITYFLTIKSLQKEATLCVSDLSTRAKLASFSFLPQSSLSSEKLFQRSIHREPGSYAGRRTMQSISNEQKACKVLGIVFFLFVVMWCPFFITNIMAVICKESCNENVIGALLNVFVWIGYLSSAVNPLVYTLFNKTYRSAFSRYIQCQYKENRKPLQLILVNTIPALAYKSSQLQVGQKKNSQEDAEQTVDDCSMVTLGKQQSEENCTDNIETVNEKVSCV
TEST PROTOCOL: Binding affinity against rat 5-hydroxytryptamine 2 receptor in rat cerebral cortex tissue using [3H]spiperone as radioligand
Type: tissue-based
MEASURED ENDPOINT: IC50 (nM)

[[record]]
molecule = "O=C1CC2(CCCC2)C(C(=O)NCCCCN2CCN(c3nsc4ccccc34)CC2)O1 (stereo unspecified)"
assay_target = "UniProt:P14842"
measured_endpoint = "IC50"
observed_result = 4.5


* * *

ASSAY TARGET: 5-hydroxytryptamine receptor 1A (Rattus norvegicus, UniProt P19327)
Sequence (P19327 whole entry): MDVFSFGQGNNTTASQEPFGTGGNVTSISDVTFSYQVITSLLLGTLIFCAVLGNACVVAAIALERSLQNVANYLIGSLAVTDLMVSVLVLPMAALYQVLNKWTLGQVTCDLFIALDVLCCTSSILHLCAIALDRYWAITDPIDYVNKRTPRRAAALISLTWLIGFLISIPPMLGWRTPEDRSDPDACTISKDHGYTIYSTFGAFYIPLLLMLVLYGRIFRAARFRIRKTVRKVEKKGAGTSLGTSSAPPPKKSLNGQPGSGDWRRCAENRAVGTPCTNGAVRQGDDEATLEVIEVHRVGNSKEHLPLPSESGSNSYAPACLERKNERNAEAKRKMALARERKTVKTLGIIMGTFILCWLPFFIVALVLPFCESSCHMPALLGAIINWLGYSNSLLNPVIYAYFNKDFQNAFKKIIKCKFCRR
TEST PROTOCOL: Binding affinity against 5-hydroxytryptamine 1A receptor of rat hippocampal tissue with [3H]5-HT
Type: tissue-based, Hippocampus
pIC50: −log10 of the molar value.
MEASURED ENDPOINT: pIC50

[[record]]
smiles_code = "COc1ccc2snc(N3CCNCC3)c2c1"
observed_result = 7.68

[[record]]
smiles_code = "COc1cccc2snc(N3CCNCC3)c12"
observed_result = 6.92


* * *

ASSAY TARGET: 5-hydroxytryptamine receptor 1A (Rattus norvegicus, UniProt P19327)
TEST PROTOCOL: Binding affinity against 5-hydroxytryptamine 1A receptor using in rat hippocampal tissue using [3H]8-OH-DPAT as radioligand
Assay type: tissue-based, Hippocampus
MEASURED ENDPOINT: log10 IC50 (log10 of the value in nM)

[[record]]
compound = "O=C1CC2(CCCC2)C(C(=O)NCCCCN2CCN(c3nsc4ccccc34)CC2)O1 (configuration not stated)"
measured_endpoint = "log10 IC50"
observed_result = 1.99

[[record]]
compound = "O=C1CC2(CCC(O)C2)CC(=O)N1CCCCN1CCN(c2nsc3ccccc23)CC1 (configuration not stated)"
measured_endpoint = "log10 IC50"
observed_result = 0.57

[[record]]
compound = "O=C1CC2(CCCC2)C(O)C(=O)N1CCCCN1CCN(c2nsc3ccccc23)CC1 (configuration not stated)"
measured_endpoint = "log10 IC50"
observed_result = 0.70

[[record]]
compound = "O=C1CC2(CCCC2)CC(=O)N1CCC(O)CN1CCN(c2nsc3ccccc23)CC1 (configuration not stated)"
measured_endpoint = "log10 IC50"
observed_result = 1.40

[[record]]
compound = "O=C1CCC2(C1)CC(=O)N(CCCCN1CCN(c3nsc4ccccc34)CC1)C(=O)C2"
measured_endpoint = "log10 IC50"
observed_result = 0.48

[[record]]
compound = "c1ccc2c(N3CCNCC3)nsc2c1 [BENZISOTHIAZOLE-3-YL-PIPERAZINE]"
measured_endpoint = "log10 IC50"
observed_result = 2.28

[[record]]
compound = "O=C1CC2(CCC(O)C2)CC(=O)N1CCC(O)CN1CCN(c2nsc3ccccc23)CC1 (configuration not stated)"
measured_endpoint = "log10 IC50"
observed_result = 1.15

